Test: Log p, octan-1-ol / phosphate buffer partition
Assay type: physicochemical
Conditions: octan-1-ol / 6.6 mM phosphate buffer pH 7.4, 25 °C
In this section we review reported logP at 2 h values for a set of compounds.
When you answer, write just the number.

{"columns": ["compound", "logP at 2 h"],
 "data": [
  ["COc1cc([C@@H]2Oc3cc([C@H]4Oc5cc(O)cc(O)c5C(=O)[C@@H]4O)ccc3O[C@H]2CO)ccc1O [Silybin B, silybin B, reference compound]", 2.17]
]}

Let me know recorded logP at 2 h for COc1cc(C2Oc3c(O)cc([C@H]4Oc5cc(O)cc(O)c5C(=O)[C@@H]4O)cc3C2CO)ccc1O (stereo partly drawn) [Silychristin, reference compound] , thanks. 1.47

Read off the recorded logP at 2 h for COc1cc(C2Oc3c(O)cc([C@H]4Oc5cc(O)cc(O)c5C(=O)[C@@H]4O)cc3C2CO)ccc1OS(=O)(=O)O (stereo partly drawn) [Silychristin-19-O-sulfate] -2.25

Supply logP at 2 h value. Item: COc1cc([C@@H]2Oc3cc([C@H]4Oc5cc(O)cc(O)c5C(=O)[C@@H]4O)ccc3O[C@H]2CO)ccc1OS(=O)(=O)O [Silybin B 20-O-sulfate] -2.34

Return the recorded logP at 2 h value; entry: COc1cc([C@H]2Oc3cc([C@H]4Oc5cc(O)cc(O)c5C(=O)[C@@H]4O)ccc3O[C@@H]2CO)ccc1OS(=O)(=O)O [Silybin A 20-O-sulfate] -1.65

----------
Test: DPPH radical scavenging
Type: biochemical
Conditions: mean ± standard error, listed as 2,3-dehydrosilybin
pIC50: −log10 of the molar value.
value kind: pIC50

Determine from records and report pIC50 for COc1cc(C2Oc3cc(-c4oc5cc(O)cc(O)c5c(=O)c4O)ccc3OC2CO)ccc1O (stereo not shown) [2,3-Dehydrosilybin, reference compound] 4.85 to 4.89

----------
This section presents compounds with their documented FCR [GAE] values.
Test: Folin–Ciocalteu reagent (FCR) reduction
Format: biochemical
Details: Folin–Ciocalteau reagent reduction, gallic acid equivalents; mean ± standard error
Marks after values point to notes of the source that are not given here.

Please indicate FCR [GAE] recorded for COc1cc([C@H]2Oc3cc([C@H]4Oc5cc(O)cc(O)c5C(=O)[C@@H]4O)ccc3O[C@@H]2CO)ccc1OS(=O)(=O)O [Silybin A 20-O-sulfate] 0.08 ± 0.01 GAE

Give a short answer stating reported FCR [GAE] for Cc1c(C)c2c(c(C)c1O)CCC(C)(C(=O)O)O2 (stereo not drawn) [Trolox, reference compound] . 0.33 ± 0.00 ^k GAE

Hello, please tell me recorded FCR [GAE] for this one: COc1cc(C2Oc3c(O)cc(-c4oc5cc(O)cc(O)c5c(=O)c4O)cc3C2CO)ccc1OS(=O)(=O)O (stereo not drawn) [2,3-Dehydro-silychristin-19-O-sulfate, 2,3-Dehydrosilychristin-19-O-sulfate] 1.44 ± 0.01 ^l GAE

----------
Target: aryl sulfotransferase from rat liver (AST IV) (Rattus norvegicus)
Construct: made in house; host or cells: E. coli BL21 (DE3) Gold (whole cells used as catalyst)
Sequence (P17988 whole entry): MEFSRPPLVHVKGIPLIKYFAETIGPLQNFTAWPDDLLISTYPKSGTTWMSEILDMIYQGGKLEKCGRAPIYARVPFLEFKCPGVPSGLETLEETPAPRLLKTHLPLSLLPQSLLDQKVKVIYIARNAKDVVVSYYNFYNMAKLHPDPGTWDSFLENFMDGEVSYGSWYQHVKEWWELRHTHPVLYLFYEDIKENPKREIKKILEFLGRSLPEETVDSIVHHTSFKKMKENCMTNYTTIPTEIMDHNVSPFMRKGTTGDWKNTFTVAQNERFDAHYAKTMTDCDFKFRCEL
Test: Substrate specificity of AST IV (whole E. coli cells, p-NPS donor)
Assay type: in vitro ADME
Design: key: +: isolated sulfated product(s) and/or release of p-nitrophenol (p-NP); –: no formation of p-NP and/or isolated sulfated products
Settings: whole E. coli cells expressing AST IV, 37 °C, 72 h
Marks after values point to notes of the source that are not given here.
value kind: Formation of p-NP

Check out these entries, answers already filled in.
{"columns": ["compound", "Formation of p-NP"],
 "data": [
  ["COc1cc([C@@H]2[C@H]3CO[C@@]4(O)C(=O)[C@@H]2C=C([C@H]2Oc5cc(O)cc(O)c5C(=O)[C@@H]2O)[C@@H]34)ccc1O [Silydianin]", "+ ^a"],
  ["COc1cc([C@H]2Oc3cc([C@H]4Oc5cc(O)cc(O)c5C(=O)[C@@H]4O)ccc3O[C@@H]2CO)ccc1O [Silybin A, silybin A, reference compound]", "– ^c"],
  ["COc1cc(C2Oc3c(O)cc([C@H]4Oc5cc(O)cc(O)c5C(=O)[C@@H]4O)cc3C2CO)ccc1O (some centres unmarked) [Silychristin, reference compound]", "+ ^a"],
  ["COc1cc(C2Oc3cc([C@H]4Oc5cc(O)cc(O)c5C(=O)[C@@H]4O)ccc3OC2CO)ccc1O (some centres unmarked) [Silybin A/B, Silybin]", "+ ^a"]
]}

Look up and report Formation of p-NP, with aryl sulfotransferase from rat liver (AST IV) (Rattus norvegicus) as system, for COc1cc([C@@H]2Oc3cc([C@H]4Oc5cc(O)cc(O)c5C(=O)[C@@H]4O)ccc3O[C@H]2CO)ccc1O [Silybin B, silybin B, reference compound] + ^a

----------
Experiment: ABTS+ cation radical scavenging
Type: biochemical
Conditions: vitamin C equivalents, mean ± standard error
value kind: ABTS^+ [CE] (CE)
Write the answer as a number in CE, unit excluded.

{"columns": ["compound", "units text", "ABTS^+ [CE]"],
 "data": [
  ["COc1cc(C2Oc3c(O)cc([C@H]4Oc5cc(O)cc(O)c5C(=O)[C@@H]4O)cc3C2CO)ccc1O (some centres unmarked) [Silychristin, reference compound]", "CE", 1.50]
]}

Now for another entry.
Quick one: give measured ABTS^+ [CE] for COc1cc([C@H]2Oc3cc([C@H]4Oc5cc(O)cc(O)c5C(=O)[C@@H]4O)ccc3O[C@@H]2CO)ccc1OS(=O)(=O)O [Silybin A 20-O-sulfate] 0.02

----------
Assay: ABTS+ cation radical scavenging
Format: biochemical
Settings: vitamin C equivalents, mean ± standard error
Marks after values point to notes of the source that are not given here.
Attribute: ABTS^+ [CE]

{"columns": ["compound", "ABTS^+ [CE]"],
 "data": [
  ["COc1cc(C2Oc3c(O)cc([C@H]4Oc5cc(O)cc(O)c5C(=O)[C@@H]4O)cc3C2CO)ccc1OS(=O)(=O)O (stereo partly drawn) [Silychristin-19-O-sulfate]", "0.62 ± 0.03 ^k CE"],
  ["COc1cc(C2Oc3cc(-c4oc5cc(O)cc(O)c5c(=O)c4O)ccc3OC2CO)ccc1OS(=O)(=O)O (stereo not drawn) [2,3-Dehydrosilybin-20-O-sulfate]", "0.71 ± 0.03 ^j CE"],
  ["COc1cc(C2Oc3c(O)cc(-c4oc5cc(O)cc(O)c5c(=O)c4O)cc3C2CO)ccc1O (stereo not drawn) [2,3-Dehydrosilychristin, reference compound]", "0.93 ± 0.03 ^l CE"],
  ["COc1cc(C2Oc3cc(-c4oc5cc(O)cc(O)c5c(=O)c4O)ccc3OC2CO)ccc1O (stereo not drawn) [2,3-Dehydrosilybin, reference compound]", "0.77 ± 0.01 ^j CE"],
  ["COc1cc(C2Oc3cc(-c4oc5cc(OS(=O)(=O)O)cc(O)c5c(=O)c4O)ccc3OC2CO)ccc1OS(=O)(=O)O (stereo not drawn) [2,3-Dehydrosilybin-7,20-di-O-sulfate]", "0.55 ± 0.03 CE"]
]}

Now turn to the next compound.
Please report the measured ABTS^+ [CE] for COc1cc([C@@H]2Oc3cc([C@H]4Oc5cc(O)cc(O)c5C(=O)[C@@H]4O)ccc3O[C@H]2CO)ccc1OS(=O)(=O)O [Silybin B 20-O-sulfate] 0.04 ± 0.00 CE

----------
Experiment: Folin–Ciocalteu reagent (FCR) reduction
Format: biochemical
Details: Folin–Ciocalteau reagent reduction, gallic acid equivalents; mean ± standard error
Marks after values point to notes of the source that are not given here.
value kind: FCR [GAE]

Examples from the recorded data:
{"columns": ["compound", "assay result"],
 "data": [
  ["COc1cc(C2Oc3c(O)cc(-c4oc5cc(O)cc(O)c5c(=O)c4O)cc3C2CO)ccc1O (stereo not drawn) [2,3-Dehydrosilychristin, reference compound]", "1.58 ± 0.04 ^l GAE"],
  ["COc1cc(C2Oc3c(O)cc([C@H]4Oc5cc(O)cc(O)c5C(=O)[C@@H]4O)cc3C2CO)ccc1OS(=O)(=O)O (stereo partly drawn) [Silychristin-19-O-sulfate]", "0.80 ± 0.11 ^m GAE"],
  ["COc1cc([C@@H]2Oc3cc([C@H]4Oc5cc(O)cc(O)c5C(=O)[C@@H]4O)ccc3O[C@H]2CO)ccc1OS(=O)(=O)O [Silybin B 20-O-sulfate]", "0.16 ± 0.02 GAE"],
  ["COc1cc(C2Oc3cc(-c4oc5cc(O)cc(O)c5c(=O)c4O)ccc3OC2CO)ccc1O (stereo not drawn) [2,3-Dehydrosilybin, reference compound]", "1.51 ± 0.09 ^l GAE"],
  ["COc1cc([C@H]2Oc3cc([C@H]4Oc5cc(O)cc(O)c5C(=O)[C@@H]4O)ccc3O[C@@H]2CO)ccc1O [Silybin A, silybin A, reference compound]", "0.33 ± 0.02 ^k GAE"],
  ["COc1cc(C2Oc3cc(-c4oc5cc(OS(=O)(=O)O)cc(O)c5c(=O)c4O)ccc3OC2CO)ccc1OS(=O)(=O)O (stereo not drawn) [2,3-Dehydrosilybin-7,20-di-O-sulfate]", "0.95 ± 0.01 ^m GAE"]
]}

Identify measured FCR [GAE] associated with COc1cc(C2Oc3c(O)cc([C@H]4Oc5cc(O)cc(O)c5C(=O)[C@@H]4O)cc3C2CO)ccc1O (stereo partly drawn) [Silychristin, reference compound] 1.13 ± 0.23 ^m GAE

Fill in FCR [GAE] for record COc1cc([C@@H]2Oc3cc([C@H]4Oc5cc(O)cc(O)c5C(=O)[C@@H]4O)ccc3O[C@H]2CO)ccc1O [Silybin B, silybin B, reference compound] 0.36 ± 0.03 ^k GAE

Look up and report measured FCR [GAE] for this entry: COc1cc(C2Oc3cc(-c4oc5cc(O)cc(O)c5c(=O)c4O)ccc3OC2CO)ccc1OS(=O)(=O)O (stereo not drawn) [2,3-Dehydrosilybin-20-O-sulfate] 1.03 ± 0.01 ^m GAE
